Exercise: state measured DC50 for each of the molecules provided.
- measured-on: HiBit-BRM fusion protein (Homo sapiens)
- Construct: expressed in transfected cells
- Sequence (P51531 whole entry, the tested form may be a part): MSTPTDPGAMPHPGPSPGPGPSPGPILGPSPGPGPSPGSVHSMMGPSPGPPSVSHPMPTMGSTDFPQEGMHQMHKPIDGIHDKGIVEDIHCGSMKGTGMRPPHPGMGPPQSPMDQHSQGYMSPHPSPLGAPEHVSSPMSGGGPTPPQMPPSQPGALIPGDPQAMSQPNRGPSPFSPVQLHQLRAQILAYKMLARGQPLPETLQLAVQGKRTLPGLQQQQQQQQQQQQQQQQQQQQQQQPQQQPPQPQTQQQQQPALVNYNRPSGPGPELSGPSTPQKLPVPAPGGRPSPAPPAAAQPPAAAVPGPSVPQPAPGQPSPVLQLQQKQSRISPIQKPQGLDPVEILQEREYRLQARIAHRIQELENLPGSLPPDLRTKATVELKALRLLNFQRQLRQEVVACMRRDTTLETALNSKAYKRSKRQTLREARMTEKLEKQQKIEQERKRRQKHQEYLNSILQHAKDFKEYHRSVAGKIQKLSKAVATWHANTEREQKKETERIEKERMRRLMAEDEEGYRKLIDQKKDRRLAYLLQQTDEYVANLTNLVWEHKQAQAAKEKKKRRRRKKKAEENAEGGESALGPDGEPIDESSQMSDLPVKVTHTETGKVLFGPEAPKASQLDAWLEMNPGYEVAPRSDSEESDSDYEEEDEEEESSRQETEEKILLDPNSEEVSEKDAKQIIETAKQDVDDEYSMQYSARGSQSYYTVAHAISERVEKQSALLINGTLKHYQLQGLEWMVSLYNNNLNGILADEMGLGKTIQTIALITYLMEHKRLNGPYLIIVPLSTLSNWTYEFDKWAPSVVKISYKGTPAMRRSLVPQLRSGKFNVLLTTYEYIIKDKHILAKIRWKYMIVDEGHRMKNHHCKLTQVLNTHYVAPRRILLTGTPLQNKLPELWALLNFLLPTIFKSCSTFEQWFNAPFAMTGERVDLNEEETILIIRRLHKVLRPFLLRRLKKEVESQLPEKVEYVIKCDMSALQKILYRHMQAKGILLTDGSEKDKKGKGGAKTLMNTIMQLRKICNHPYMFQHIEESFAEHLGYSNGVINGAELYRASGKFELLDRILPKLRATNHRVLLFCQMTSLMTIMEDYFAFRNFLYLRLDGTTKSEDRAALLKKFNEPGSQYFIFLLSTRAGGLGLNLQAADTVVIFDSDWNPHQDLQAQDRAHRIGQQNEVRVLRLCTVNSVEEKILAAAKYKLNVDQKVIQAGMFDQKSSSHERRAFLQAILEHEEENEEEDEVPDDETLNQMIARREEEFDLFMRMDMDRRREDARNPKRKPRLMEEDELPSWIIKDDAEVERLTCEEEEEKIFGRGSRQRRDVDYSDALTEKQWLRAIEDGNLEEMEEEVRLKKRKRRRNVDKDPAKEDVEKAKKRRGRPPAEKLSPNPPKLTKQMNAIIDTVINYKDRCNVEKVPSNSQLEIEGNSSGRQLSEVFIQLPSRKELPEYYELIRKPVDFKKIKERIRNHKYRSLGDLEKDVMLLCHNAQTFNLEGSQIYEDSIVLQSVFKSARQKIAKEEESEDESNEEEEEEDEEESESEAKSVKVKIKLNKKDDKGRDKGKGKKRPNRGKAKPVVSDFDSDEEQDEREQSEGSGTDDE
- experiment: HiBiT-BRM cell-based degradation assay (Nano-Glo HiBiT Lytic Detection, 24 h)
- test-parameters: HeLa cell line expressing HiBiT-BRM, read-out: BRM HiBit Degradation IC50

Some solved cases for reference:
[
  {
    "molecule": "Cc1ncsc1-c1ccc([C@H](C)NC(=O)[C@@H]2C[C@@H](O)CN2C(=O)[C@@H](c2cc(C3CCN(C(=O)N4CCc5[nH]c6nnc(-c7ccccc7O)cc6c5C4)CC3)no2)C(C)C)cc1",
    "reported-value": "> 10 nM"
  },
  {
    "molecule": "Cc1ncsc1-c1ccc([C@H](C)NC(=O)[C@@H]2C[C@@H](O)CN2C(=O)[C@@H](c2cc(OCCN3CC(COc4c[nH]c5nnc(-c6ccccc6O)cc45)C3)no2)C(C)C)cc1 (racemic)",
    "reported-value": "> 100 nM"
  }
]

Hey, can you go through the list below and give me DC50 for every item?
1. Cc1ncsc1-c1ccc([C@H](C)NC(=O)[C@@H]2C[C@@H](O)CN2C(=O)[C@@H](c2cc(OCCNCc3cc4cc(-c5ccccc5O)nnc4[nH]3)no2)C(C)C)cc1 (racemic)
2. Cc1ncsc1-c1ccc([C@H](C)NC(=O)[C@@H]2C[C@@H](O)CN2C(=O)[C@@H](c2cc(N3CCC(C(=O)N4CC5(Cc6cc(-c7ccccc7O)nnc6N5)C4)CC3)no2)C(C)C)cc1 (racemic)
3. Cc1ncsc1-c1ccc(CNC(=O)[C@@H]2C[C@@H](O)CN2C(=O)[C@@H](NC(=O)CCCCCNC(=O)[C@@H]2CCc3[nH]c4nnc(-c5ccccc5O)cc4c3C2)C(C)(C)C)cc1 (racemic)
4. Cc1ncsc1-c1ccc([C@H](C)NC(=O)[C@@H]2C[C@@H](O)CN2C(=O)[C@@H](c2cc(OCCN3C[C@@H]4[C@H](C3)[C@H]4c3cc4cc(-c5cccc(Cl)c5O)nnc4[nH]3)no2)C(C)C)cc1 (racemic)
5. Cc1ncsc1-c1ccc([C@H](C)NC(=O)[C@@H]2C[C@@H](O)CN2C(=O)[C@@H](c2cc(N3CCN(CCC(=O)N4CC(c5c[nH]c6nnc(-c7ccccc7O)cc56)C4)CC3)no2)C(C)C)cc1 (racemic)
6. Cc1ncsc1-c1ccc([C@H](C)NC(=O)[C@@H]2C[C@@H](O)CN2C(=O)[C@@H](c2cc(OCCCN[C@H]3CCc4[nH]c5nnc(-c6ccccc6O)cc5c4C3)no2)C(C)C)cc1
7. Cc1ncsc1-c1ccc([C@H](C)NC(=O)[C@@H]2C[C@@H](O)CN2C(=O)[C@@H](c2cc(OCCN(C)[C@@H]3CCc4[nH]c5nnc(-c6ccccc6O)cc5c4C3)no2)C(C)C)cc1

["> 100 nM", "> 100 nM", "> 100 nM", "> 10 nM", "> 100 nM", "> 100 nM", "> 10 nM"]

For every item in the list below, what is its measured DC50?
1. Cc1ncsc1-c1ccc([C@H](C)NC(=O)[C@@H]2C[C@@H](O)CN2C(=O)[C@@H](c2cc(OCCN3CCN(CCN4CC(c5cc6cc(-c7ccccc7O)nnc6[nH]5)C4)CC3)no2)C(C)C)cc1 (racemic)
2. Cc1ncsc1-c1ccc([C@H](C)NC(=O)[C@@H]2C[C@@H](O)CN2C(=O)[C@@H](c2cc(OCCNC(=O)[C@H]3CCc4[nH]c5nnc(-c6ccccc6O)cc5c4C3)no2)C(C)C)cc1 (single isomer, unassigned)
3. Cc1ncsc1-c1ccc([C@H](C)NC(=O)[C@@H]2C[C@@H](O)CN2C(=O)[C@@H](c2cc(N3CCN(C(=O)C(=O)N4CC(c5cc6cc(-c7ccccc7O)nnc6[nH]5)C4)CC3)no2)C(C)C)cc1 (single isomer, unassigned)

["> 100 nM", "> 100 nM", "> 100 nM"]

Hey, can you go through the list below and give me DC50 for every item?
1. Cc1ncsc1-c1ccc([C@H](C)NC(=O)[C@@H]2C[C@@H](O)CN2C(=O)[C@@H](c2cc(N(C)CCN3CC(c4cc5cc(-c6ccccc6O)nnc5[nH]4)C3)no2)C(C)C)cc1 (racemic)
2. Cc1ncsc1-c1ccc([C@H](C)NC(=O)[C@@H]2C[C@@H](O)CN2C(=O)[C@@H](c2cc(OCCN3C[C@@H]4[C@H](C3)[C@H]4c3[nH]c4nnc(-c5ccccc5O)cc4c3Cl)no2)C(C)C)cc1 (racemic)
3. O=C1CCC(N2C(=O)c3cccc(OCCCCC(=O)N4CC(c5cc6cc(-c7ccccc7O)nnc6[nH]5)C4)c3C2=O)C(=O)N1 (stereo not drawn)
4. Cc1ncsc1-c1ccc([C@H](C)NC(=O)[C@@H]2C[C@@H](O)CN2C(=O)[C@@H](c2cc(OCCN3CC[C@H](c4cc5cc(-c6ccccc6O)nnc5[nH]4)C3)no2)C(C)C)cc1 (racemic)
5. Cc1ncsc1-c1ccc([C@H](C)NC(=O)[C@@H]2C[C@@H](O)CN2C(=O)[C@@H](c2cc(OCCN(C)CCN3CC(c4cc5cc(-c6ccccc6O)nnc5[nH]4)C3)no2)C(C)C)cc1 (racemic)

> 100 nM
> 10 nM
> 1000 nM
> 10 nM
> 100 nM

I would be grateful if you could share the reported DC50 for Cc1ncsc1-c1ccc([C@H](C)NC(=O)[C@@H]2C[C@@H](O)CN2C(=O)[C@@H](c2cc(OCCN3CC(Cc4cc5cc(-c6ccccc6O)nnc5[nH]4)C3)no2)C(C)C)cc1 (racemic) .
> 100 nM
